System: ACHN renal
Assay: NCI-60 one-dose screen, 48 h
Conditions: 10 µM unless noted
Method: Growth inhibition of the ACHN human tumor cell line is measured as a screen for anti-cancer activity. Cells are grown in 96 well plates and exposed to the test compound for 48 hours. Compounds are tested at a single concentration, which is 10^-5 M for most compounds. The reported endpoint is percent growth (GI% or GIPRCNT), where numbers from 0 - 100% represent growth inhibition, and numbers from -100% - 0 represent cell death. For example, a value of 40 represents 60% growth inhibition. […]
This is part of a sample that, as a whole, favours compounds with a hit. Of some 83,000 tested, about 20% had one in any assay. Calls of active or inactive are those of the source. How the source made its calls: active means growth percent below 10; inactive means the rest.
Classes used: T for active, F for inactive

Structure: O=C(Cn1cc(COc2ncnc3c2cnn3-c2ccccc2)nn1)Nc1ccccn1
Class name: F

Structure: CCOC(=O)c1cc2c(n1Cc1ccccc1)-c1oncc1CCC2
Class name: F

Structure: CN(C)c1ccc(/C=C/c2ccnc3c(O)cccc23)cc1
Class name: F

Structure: Cc1ccc(N=NC2C(=O)N(c3ccc(Cl)cc3)N(c3ccc(Cl)cc3)C2=O)cc1
Class name: F

Structure: O=C(Cn1cc(COc2ncnc3c2cnn3-c2ccccc2)nn1)Nc1cccc2ccccc12
Class name: F

Structure: CCOc1cccc(/C=N\Nc2nc(=O)cc(C(=O)OC)s2)c1O
Class name: F

Structure: FC(F)(F)c1cccc(Nc2nc3ccccc3nc2Nc2cccc(C(F)(F)F)c2)c1
Class name: T

Structure: COc1cc(NC(=O)CCSc2nc3ccccc3c(=O)n2Cc2ccccc2)cc(OC)c1OC
Class name: F

Structure: Cn1c(C(=O)c2cccc3ccccc23)nc2ccccc21
Class name: F

Structure: O=S1(=O)N(Cc2ccccc2)[C@@H](Cc2ccccc2)[C@H](O)[C@H](O)[C@H](Cc2ccccc2)N1Cc1ccccc1
Class name: T

Structure: NCCOc1ncccc1/C=C1\c2ccccc2-c2ccc([N+](=O)[O-])cc21
Class name: T

Structure: COc1cc(/C=C2\Oc3cc(OCCCN4CCCC4)ccc3C2=O)cc(OC)c1
Class name: T

Structure: COc1ccc(/C=C2\CCC/C(=C\c3ccc(OC)c(OC)c3)C2=O)cc1OC
Class name: T

Structure: Clc1ccc(Nc2nnc(-c3ccc4c(c3)OCO4)o2)cc1
Class name: F

====

test system: SF-539 CNS; assay: NCI-60 one-dose screen, 48 h (100 = growth as untreated, 0 = no growth, -100 = all killed); details: 10 µM unless noted
About 83,000 compounds went through this panel and 20% of them were active in at least one assay; those are over-represented in the sample as a whole.
Entries annotated with measured growth

Molecule: O=C1NC(=S)NC(=O)C1=Cc1cn(Cc2cn(Cc3cccc4ccccc34)nn2)c2ccccc12
Target or system: SF-539 CNS
growth [%]: 96.3
//
Molecule: CCOc1c(Br)cc(C2C(C(=O)OC)=CN(C)C=C2C(=O)OC)cc1OC
Target or system: SF-539 CNS
growth [%]: 94.2
//
Molecule: S=C1NC2(c3ccccc3)CCC(=S)N2c2ccccc21 (stereo not drawn)
Target or system: SF-539 CNS
growth [%]: 107

====

system: MOLT-4 leukemia; assay: NCI-60 one-dose screen, 48 h (100 = growth as untreated, 0 = no growth, -100 = all killed); conditions: 10 µM unless noted
Compounds without any hit were thinned out: in the full panel of roughly 83,000, 20% have a hit.

Molecule: CC(=O)O[C@@H]1/C=C/C(=O)N[C@@H](C)CCC/C=C/[C@@H]2CCC[C@H]21
growth [%]: 93.6
//
Molecule: COc1ccc(-c2nsc3c2NC(=O)CC3c2cccc(OC)c2)cc1 (stereo not drawn)
growth [%]: 32.2
//
Molecule: Nc1nc(-c2cnccn2)nn1-c1nc2ccccc2s1
growth [%]: 94.7
//
Molecule: O=C(c1ccccc1)N(CCc1ccc(Cl)cc1)C(=S)N(C(=O)c1ccccc1)c1ccccc1
growth [%]: 28.7
//
Molecule: Cn1c(C(=O)c2cccc3ccccc23)nc2ccccc21
growth [%]: 9.16
//
Molecule: Cc1ccc(Cn2c(N3CCC(C(=O)NCc4cccs4)CC3)nc3ccccc32)cc1
growth [%]: 21.6
//
Molecule: CC(C)(C)c1ccc(C2CC(=O)C3=C(C2)Nc2ccccc2N(C(=O)c2ccccc2Cl)C3c2ccc(F)cc2)cc1 (stereo not drawn)
growth [%]: 6.7
//
Molecule: OC(CNC1CCCCC1)Cn1c2ccc(I)cc2c2cc(I)ccc21 (stereo not drawn)
growth [%]: 68.2
//
Molecule: COc1cc(/C=C2\CCC/C(=C\c3cc(CN4CCOCC4)c(O)c(OC)c3)C2=O)cc(CN2CCOCC2)c1O
growth [%]: 11
//
Molecule: O=C(Nc1ccc(F)cc1F)c1cc(Cl)ccc1O
growth [%]: 8.79
//
Molecule: O=C1NC(=S)NC(=O)C1=Cc1cn(Cc2cn(Cc3cccc4ccccc34)nn2)c2ccccc12
growth [%]: 96.2
//
Molecule: C#CCn1cc(C=C2C(=O)N(C)C(=O)N(C)C2=O)c2cc(Cl)ccc21
growth [%]: 105
//
Molecule: COc1cc2nc(-c3cccc4cccnc34)nc(NC3CCN(Cc4ccccc4)CC3)c2cc1OC
growth [%]: -32.4
//
Molecule: NC(CCc1nc2ccccc2c(=O)[nH]1)C(=O)O (stereo not drawn)
growth [%]: 103
//
Molecule: COc1ccc2sc3c(NCCCN)nc4ccccc4c3c(=O)c2c1
growth [%]: -17.3
//
Molecule: O=C(Nc1nc2c(s1)CCc1c-2c(Br)n(Cc2ccccc2)c1Br)c1ccccc1
growth [%]: 83.1
//
Molecule: O=C(/C=C/c1ccc(Cl)cc1)c1ccc(Nc2nc(NCCO)nc(N3CCOCC3)n2)cc1
growth [%]: 71.3
//
Molecule: CCCC(c1nnnn1C1CCCCC1)N1CCN(C(=O)c2ccco2)CC1 (stereo not drawn)
growth [%]: 26.9
//
Molecule: CCCSC1=NC2C(N(CC)C(=O)N2CC)N1/N=C/C=C/c1ccccc1[N+](=O)[O-] (stereo not drawn)
growth [%]: 18.6
//
Molecule: C=C[C@@H]1CCC/C=C/[C@@H]2C[C@H](O)C[C@H]2[C@H](O)/C=C/C(=O)O1
growth [%]: -9.66
//
Molecule: CCOC(=O)c1ccc(N=Cc2sc(=O)[nH]c2O)cc1
growth [%]: 99.9
//
Molecule: O=C(Nc1ccc(N2CCNCC2)cn1)c1[nH]ncc1Nc1ncnc2sc3c(c12)CCC3
growth [%]: 14.3
//
Molecule: O=Cc1cc2ccccc2nc1Nc1nccs1
growth [%]: 23.4

====

test system: RPMI-8226 leukemia; test: NCI-60 one-dose screen, 48 h; settings: 10 µM unless noted
About 83,000 compounds went through this panel and 20% of them were active in at least one assay; those are over-represented in the sample as a whole. Calls of active or inactive are those of the source. The calls were made as follows: active = growth percent below 10; inactive = the rest.
Classes used: class 1 for active, class 0 for inactive

Compound: O=C(O)c1cn(C2CC2)c2cc(N3CCN(C(=O)C[n+]4ccccc4)CC3)c(F)cc2c1=O
Class name: class 0

Compound: O=c1oc2ccc(-c3ccc(F)cc3F)cc2c(=O)n1-c1cccc(C(F)(F)F)c1
Class name: class 1

Compound: CC1(C)CC2(C)OC2C2(C1)N=NC(=Nc1ccccc1)O2 (centres undefined)
Class name: class 1

Compound: NCCNc1nc2ccc(F)cc2c2c(=O)c3cc(F)ccc3sc12
Class name: class 1

Compound: O=c1oc2ccc(Cl)cc2c(=O)n1-c1cc(C(F)(F)F)cc(C(F)(F)F)c1
Class name: class 1

Compound: COc1ccc(-c2cn[nH]c2-c2ccc(OC)c(O)c2)cc1
Class name: class 0

Compound: CN1CCN(Cc2ccc(NC(=O)c3cncc(C#Cc4nc(N)nc5[nH]ncc45)c3)cc2C(F)(F)F)CC1
Class name: class 0

Compound: CC(=O)c1ccc(Nc2nc(NCCO)nc(Nc3ccc(Cl)cc3)n2)cc1
Class name: class 0

Compound: O=C(/C=C/c1ccc(Cl)cc1)c1ccc(Nc2nc(NCCO)nc(Nc3ccc(Cl)cc3)n2)cc1
Class name: class 1

Compound: Cn1c(C(=O)c2cccc3ccccc23)nc2ccccc21
Class name: class 0

Compound: COc1ccc(/C=c2\sc3n(c2=O)NC2C(N=3)N(C)C(=O)N2C)cc1 (centres undefined)
Class name: class 0

Compound: CCCCc1c(CCC)c(=N)c2ccccc2n1C
Class name: class 0

Compound: O=C(c1nc2ccccc2[nH]1)C1C(c2cccc([N+](=O)[O-])c2)C2CC3CCCCC3N2[C@@]12C(=O)Nc1cc(Cl)ccc12 (some centres undefined)
Class name: class 1

Compound: CCCC(=O)CC(C)=O.CCCC(=O)CC(C)=O.[Cu]
Class name: class 0

Compound: COc1cccc2c1C=C1CCCCC3=Cc4c(OC)cccc4OC13O2
Class name: class 0

Compound: COc1ccc(/C=C/C(=O)c2ccc(Nc3nc(NCCO)nc(Nc4ccc(Cl)cc4)n3)cc2)cc1
Class name: class 1

Compound: O=C(c1nc2ccccc2[nH]1)C1C(c2ccc([N+](=O)[O-])cc2)C2CC3CCCCC3N2[C@@]12C(=O)Nc1cc(Cl)ccc12 (some centres undefined)
Class name: class 1

Compound: COc1ccc(-c2nc(N3CCN(C(=O)C4CCCCC4)CC3)c3c4c(sc3n2)CCCC4)cc1
Class name: class 1

Compound: COc1ccc(Nc2cc(C)nc(NCc3ccccc3)n2)cc1
Class name: class 1

Compound: COc1ccc(-c2cn3c(C(=O)Nc4ccccc4Cl)c(-c4ccccc4)c4c3n2CCCC4)cc1
Class name: class 0

Compound: CCCCCCC(O)(c1ccc(F)cc1)C(CN1CCOCC1)c1ccccc1 (centres undefined)
Class name: class 0

Compound: CCCCC1CCc2cccc3c(SCC(=O)N(C)c4ccc(Cl)cc4)cc[n+]1c23 (centres undefined)
Class name: class 0

Compound: COc1ccc(OC)c(N(CCN2C(=O)c3ccccc3C2=O)C(=O)CCl)c1
Class name: class 0

Compound: CCOC(=O)c1cc2c(n1Cc1cc(OC)cc(OC)c1)-c1oncc1CCC2
Class name: class 0

Compound: CCCN1C(=O)N(CCC)C2C1NN=c1s/c(=C3\C(=O)N(C(C)C)c4ccccc43)c(=O)n12 (centres undefined)
Class name: class 0

Compound: Cn1c(/C=C(\C#N)c2ccccc2)nc2c(N3CCOCC3)nc(Cl)nc21
Class name: class 1

Compound: COC(=O)C1=C(C)NC(C)=C(C(=O)OC)C(N2C(=O)CCC2=O)C1 (centres undefined)
Class name: class 0

Compound: O=C(Nc1ccsc1C(=O)NC1CCCCC1)c1ccc(F)cc1
Class name: class 0

Compound: NCCCNc1nc2ccccc2c2c(=O)c3cc(F)ccc3sc12
Class name: class 1

Compound: COc1cc(C#N)cc2[nH]c(=O)oc12
Class name: class 0

Compound: CC(=O)c1ccc2oc(=O)n(Cc3ccc(C#N)cc3)c(=O)c2c1
Class name: class 0

Compound: CN1CCN(Cc2ccc(C(=O)Nc3cncc(C#Cc4cnc5cccnn45)c3)cc2C(F)(F)F)CC1
Class name: class 0

Compound: Cc1cccc2c(=O)c3c(sc12)c(NCCCNCCO)nc1ccccc13
Class name: class 1

Compound: N#C/C(=C\c1c(-c2ccccc2)[nH]c2ccccc12)S(=O)(=O)c1ccccc1
Class name: class 1
